molecular target: CYP19A1 (aromatase) (Homo sapiens, UniProt P11511); experiment: Catalytic rate constant for time dependent inactivation of Cytochrome P450 19A1
Sequence (P11511 whole entry): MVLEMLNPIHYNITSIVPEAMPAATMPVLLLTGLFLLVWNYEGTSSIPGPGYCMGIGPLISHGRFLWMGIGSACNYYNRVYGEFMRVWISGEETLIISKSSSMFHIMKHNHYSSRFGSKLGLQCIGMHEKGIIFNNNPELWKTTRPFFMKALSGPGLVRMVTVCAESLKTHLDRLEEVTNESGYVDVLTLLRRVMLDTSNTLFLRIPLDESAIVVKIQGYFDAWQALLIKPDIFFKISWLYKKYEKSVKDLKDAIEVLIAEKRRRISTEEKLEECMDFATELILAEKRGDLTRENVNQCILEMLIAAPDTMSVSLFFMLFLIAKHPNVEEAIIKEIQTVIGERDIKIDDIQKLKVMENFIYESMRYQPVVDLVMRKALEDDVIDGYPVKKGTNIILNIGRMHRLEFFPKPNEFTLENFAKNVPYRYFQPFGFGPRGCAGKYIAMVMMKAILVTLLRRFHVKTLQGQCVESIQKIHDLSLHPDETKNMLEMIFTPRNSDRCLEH
Rule: kinact of 0.0008 s⁻¹ or more gives 1 (yes); anything lower gives 0 (no).

Quick check: does CCC[C@H]1CC2C(CCC3(C)C(=O)CCC23)C2(C)C=CC(=O)C=C12 (stereo partly specified) have kinact greater than or equal to 0.0008 s⁻¹?
0 (no)

Say whether CCCC[C@H]1CC2C(CCC3(C)C(=O)CCC23)C2(C)C=CC(=O)C=C12 (stereo partly specified) shows kinact of 0.0008 s⁻¹ or more.
0 (no)

Hi, just wondering whether CC[C@H]1CC2C(CCC3(C)C(=O)CCC23)C2(C)C=CC(=O)C=C12 (stereo partly specified) shows kinact of 0.0008 s⁻¹ or higher.
1 (yes)

Exam item: decide whether the reported kinact for C[C@@H]1CC2C(CCC3(C)C(=O)CCC23)C2(C)C=CC(=O)C=C12 (stereo partly specified) is at least 0.0008 s⁻¹.
1 (yes)

State whether the measured kinact reaches 0.0008 s⁻¹, counting equality as reaching it, for CCCCCC[C@H]1CC2C(CCC3(C)C(=O)CCC23)C2(C)C=CC(=O)C=C12 (stereo partly specified)
1 (yes)
